Molecular target: T1, human Trop-2 on Trop-2 positive cancer cells (human, UniProt P09758 27-323)
T1 sequence (looked up): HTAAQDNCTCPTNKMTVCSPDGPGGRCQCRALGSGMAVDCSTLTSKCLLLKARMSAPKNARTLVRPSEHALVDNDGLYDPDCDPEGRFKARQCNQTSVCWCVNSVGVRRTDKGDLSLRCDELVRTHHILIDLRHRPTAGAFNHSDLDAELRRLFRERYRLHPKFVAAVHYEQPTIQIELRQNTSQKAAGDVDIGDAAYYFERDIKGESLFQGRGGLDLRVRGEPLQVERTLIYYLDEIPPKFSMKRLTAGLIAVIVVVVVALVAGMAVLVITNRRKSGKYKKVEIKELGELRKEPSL
Experiment: cell-based or functional assay
// reported Internalization rate (flow cytometry, MDA-MB-468 cells) per item
Give your result as the value with the unit written after it.

Example cases with answers are listed next.
binder: humanized IgG #118-2-5 HuA/Lu(X6) (antibody, V domains shown, Second round of humanization) VH: QVQLQESGPGLVKPSETLSLTCTVSGFSLTSYGVNWIRQPPGKGLEWIGVMWAGGSTNYNSALMSRVTISVDTSKNQFSLKLSSVTAADTAVYYCARDENWDGAWFAYWGQGTLVTVSS VL: DIVMTQSPDSLAVSLGERATINCKSSQSLLNSGTRKNYLAWYQQKPGQPPKLLIYWASSRESGVPDRFSGSGSGTDFTLTISSLQAEDLAVYYCKQSYNLFTFGGGTKVEIK
result: 46.4%

binder: humanized IgG #118-2-5 HuA/Lu(X4) (antibody, V domains shown, Second round of humanization) VH: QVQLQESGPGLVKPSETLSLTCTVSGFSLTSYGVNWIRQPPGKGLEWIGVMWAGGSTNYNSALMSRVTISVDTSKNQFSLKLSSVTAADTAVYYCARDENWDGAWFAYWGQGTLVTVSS VL: DIVMTQSPDSLAVSLGERATINCKSSQSLLNSGTRKNYLAWYQQKPGQPPKLLISWASSRESGVPDRFSGSGSGTDFTLTISSLQAEDVAVYYCKQSYNLFTFGGGTKVEIK
result: 61.5%

binder: humanized IgG #118-2-5 HuA/Lu(X5) (antibody, V domains shown, Second round of humanization) VH: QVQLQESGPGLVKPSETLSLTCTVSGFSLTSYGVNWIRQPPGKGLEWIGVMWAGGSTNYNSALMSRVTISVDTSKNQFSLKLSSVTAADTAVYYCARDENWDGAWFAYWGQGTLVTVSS VL: DIVMTQSPDSLAVSLGERATINCKSSQSLLNSGTRKNYLAWYQQKPGQPPKLLIYWASSRESGVPDRFSGSGSGTDFTLTISSVQAEDVAVYYCKQSYNLFTFGGGTKVEIK
result: 19.7%

binder: humanized IgG #118-2-5 Hu(A4)/LuX (antibody, V domains shown, Second round of humanization) VH: QVQLQESGPGLVKPSETLSLTCTVSGFSLTSYGVNWIRQPPGKGLEWIGVMWAGGSTNYNSALMSRVTISVDTSKNQFSLKLSSVQAADTAVYYCARDENWDGAWFAYWGQGTLVTVSS VL: DIVMTQSPDSLAVSLGERATINCKSSQSLLNSGTRKNYLAWYQQKPGQPPKLLIYWASSRESGVPDRFSGSGSGTDFTLTISSLQAEDVAVYYCKQSYNLFTFGGGTKVEIK
result: 52.8%

binder: humanized IgG #118-2-5 HuA/Lu(X2) (antibody, V domains shown, Second round of humanization) VH: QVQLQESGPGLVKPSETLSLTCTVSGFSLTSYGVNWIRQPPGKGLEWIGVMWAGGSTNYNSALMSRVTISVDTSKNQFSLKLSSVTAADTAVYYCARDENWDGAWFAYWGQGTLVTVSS VL: DIVMTQSPDSLAVSLGERATMNCKSSQSLLNSGTRKNYLAWYQQKPGQPPKLLIYWASSRESGVPDRFSGSGSGTDFTLTISSLQAEDVAVYYCKQSYNLFTFGGGTKVEIK
result: 43.2%

The record that follows has no Internalization rate (flow cytometry, MDA-MB-468 cells) shown yet.
Retrieve Internalization rate (flow cytometry, MDA-MB-468 cells) measured for humanized IgG #118-2-5 HuA/Lu(X1) (antibody, V domains shown, Second round of humanization) VH: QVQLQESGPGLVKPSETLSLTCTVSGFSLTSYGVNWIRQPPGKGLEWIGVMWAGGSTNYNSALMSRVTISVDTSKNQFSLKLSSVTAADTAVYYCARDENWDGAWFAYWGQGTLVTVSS VL: DIVMTQSPSSLAVSLGERATINCKSSQSLLNSGTRKNYLAWYQQKPGQPPKLLIYWASSRESGVPDRFSGSGSGTDFTLTISSLQAEDVAVYYCKQSYNLFTFGGGTKVEIK and print it.
48.9%

From: patent US20230235080A1
